# testTarget: full-length B-Catenin (Uniprot ID P35222) (Homo sapiens)
# Construct: 65 nM full-length B-Catenin (Uniprot ID P35222)
# Sequence (P35222 1-781): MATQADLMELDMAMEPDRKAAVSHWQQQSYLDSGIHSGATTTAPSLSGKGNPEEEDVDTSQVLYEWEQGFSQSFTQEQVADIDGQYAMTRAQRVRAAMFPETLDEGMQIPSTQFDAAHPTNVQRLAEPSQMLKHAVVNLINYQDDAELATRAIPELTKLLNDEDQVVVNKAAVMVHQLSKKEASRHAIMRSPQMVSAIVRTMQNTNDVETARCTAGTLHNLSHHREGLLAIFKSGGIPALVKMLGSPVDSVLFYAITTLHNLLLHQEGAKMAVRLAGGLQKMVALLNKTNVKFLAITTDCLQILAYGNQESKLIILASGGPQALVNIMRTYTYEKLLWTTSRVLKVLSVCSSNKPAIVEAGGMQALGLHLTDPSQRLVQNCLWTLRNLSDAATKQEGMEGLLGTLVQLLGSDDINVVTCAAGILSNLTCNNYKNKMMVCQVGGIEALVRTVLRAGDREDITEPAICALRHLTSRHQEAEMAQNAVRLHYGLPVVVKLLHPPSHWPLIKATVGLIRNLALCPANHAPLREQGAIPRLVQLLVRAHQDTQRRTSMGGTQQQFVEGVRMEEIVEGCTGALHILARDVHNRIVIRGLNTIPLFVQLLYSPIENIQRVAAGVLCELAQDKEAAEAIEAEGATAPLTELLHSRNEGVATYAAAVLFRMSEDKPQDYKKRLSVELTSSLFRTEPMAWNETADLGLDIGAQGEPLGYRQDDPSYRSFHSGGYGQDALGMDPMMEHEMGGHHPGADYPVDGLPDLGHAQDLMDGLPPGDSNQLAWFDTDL
# procedureText: Alphascreen binding assay (beta-catenin / biotin-TCF4 10-53)
# key: entry, value: EC50
property: EC50

INSERT INTO measurements (compound, property, value) VALUES
  ('CC(=O)N1CCC[C@]12CC=CCCCC1(CCCC=CCCCCCC[C@@](C)(C(=O)N[C@@H](Cc3cccc(C(F)(F)F)c3)C(=O)N[C@@H](Cc3c[nH]c4ccccc34)C(=O)N[C@@H](CCC(N)=O)C(N)=O)NC(=O)[C@H](C(C)C)NC(=O)[C@H](Cc3ccccc3)NC(=O)[C@H](C)NC(=O)[C@H](C)NC(=O)[C@H](CC(=O)O)NC(=O)[C@H](CC(=O)O)NC1=O)NC(=O)[C@H](C)NC(=O)[C@H](CC(=O)O)NC2=O (stereo partly shown) [I-251]', 'EC50', '1.2 µM'),
  ('CC(=O)N1CCC[C@]12CC=CCCCC1(CCCC=CCCCCCC[C@@](C)(C(=O)N[C@@H](Cc3ccccc3)C(=O)N[C@@H](Cc3c[nH]c4ccccc34)C(=O)N[C@@H](CCC(N)=O)C(N)=O)NC(=O)[C@H](C(C)C)NC(=O)[C@H](Cc3ccccc3)NC(=O)[C@H](C)NC(=O)[C@H](C)NC(=O)[C@H](CCC(=O)O)NC(=O)[C@H](Cc3ccccn3)NC1=O)NC(=O)[C@H](C)NC(=O)[C@H](CC(=O)O)NC2=O (stereo partly shown)', 'EC50', '5.81 µM'),
  ('CC(=O)N1CCC[C@]12CC=CCCCC1(CCCC=CCCCCCC[C@@](C)(C(=O)N[C@@H](Cc3ccccc3)C(=O)N[C@@H](Cc3c[nH]c4ccccc34)C(=O)N[C@@H](CCC(N)=O)C(N)=O)NC(=O)[C@H](C(C)C)NC(=O)[C@H](Cc3cc(F)c(F)c(F)c3)NC(=O)[C@H](C)NC(=O)[C@H](C)NC(=O)[C@H](CCC(=O)O)NC(=O)[C@H](CC(=O)O)NC1=O)NC(=O)[C@H](C)NC(=O)[C@H](CC(=O)O)NC2=O (stereo partly shown) [I-209]', 'EC50', '1.4 µM'),
  ('CC(=O)N1CCC[C@]12CC=CCCCC1(CCCC=CCCCCCC[C@@](C)(C(=O)N[C@@H](Cc3ccc(C(F)(F)F)cc3)C(=O)N[C@@H](Cc3c[nH]c4ccccc34)C(=O)N[C@@H](CCC(N)=O)C(N)=O)NC(=O)[C@H](C(C)C)NC(=O)[C@H](Cc3ccccc3)NC(=O)[C@H](C)NC(=O)[C@H](C)NC(=O)[C@H](CC(=O)O)NC(=O)[C@H](CC(=O)O)NC1=O)NC(=O)[C@H](C)NC(=O)[C@H](CC(=O)O)NC2=O (stereo partly shown) [I-252]', 'EC50', '3.69 µM'),
  ('CC(=O)N1CCC[C@]12CC=CCCCC1(CCCC=CCCCCCC[C@@](C)(C(=O)N[C@@H](Cc3ccccc3)C(=O)N[C@@H](Cc3c[nH]c4ccccc34)C(=O)N[C@@H](CCC(N)=O)C(N)=O)NC(=O)[C@H](C(C)C)NC(=O)[C@H](Cc3ccccc3)NC(=O)[C@H](C)NC(=O)[C@H](C)NC(=O)[C@H](Cc3ccncc3)NC(=O)[C@H](CC(=O)O)NC1=O)NC(=O)[C@H](C)NC(=O)[C@H](CC(=O)O)NC2=O (stereo partly shown)', 'EC50', '1.01 µM'),
  ('CC(=O)N1CCC[C@]12CC=CCCCC1(CCCC=CCCCCCC[C@@](C)(C(=O)N[C@@H](C)C(=O)N[C@@H](Cc3c[nH]c4ccccc34)C(=O)N[C@@H](CCC(N)=O)C(N)=O)NC(=O)[C@H](C(C)C)NC(=O)[C@H](Cc3ccccc3)NC(=O)[C@H](C)NC(=O)[C@H](C)NC(=O)[C@H](CC(=O)O)NC(=O)[C@H](CC(=O)O)NC1=O)NC(=O)[C@H](C)NC(=O)[C@H](CC(=O)O)NC2=O (stereo partly shown)', 'EC50', '8.2 µM'),
  ('CC(=O)N[C@@H](Cc1ccccc1)C(=O)N[C@@H](CC(=O)O)C(=O)N[C@@H](C)C(=O)N[C@]1(C)CCCCCCC=CCOC(=O)N2CC[C@@](C(=O)N[C@@H](CC3CCCCC3)C(=O)N[C@@H](Cc3c[nH]c4ccccc34)C(=O)N[C@@H](CCC(N)=O)C(N)=O)(C2)NC(=O)[C@H](C(C)C)NC(=O)[C@H](Cc2ccccc2)NC(=O)[C@H](C)NC(=O)[C@H](C)NC(=O)[C@H](CC(=O)O)NC(=O)[C@H](CC(=O)O)NC1=O', 'EC50', '8.9 µM'),
  ('CC(=O)N[C@@H](Cc1ccccc1)C(=O)N[C@@H](CC(=O)O)C(=O)N[C@@H](C)C(=O)N[C@]1(C)CCCCCC=CCOC(=O)N2CC[C@@](C(=O)N[C@@H](Cc3ccccc3)C(=O)N[C@@H](Cc3c[nH]c4ccccc34)C(=O)N[C@@H](CCC(N)=O)C(N)=O)(C2)NC(=O)[C@H](C(C)C)NC(=O)[C@H](Cc2ccccc2)NC(=O)[C@H](C)NC(=O)[C@H](C)NC(=O)[C@H](CC(=O)O)NC(=O)[C@H](CC(=O)O)NC1=O [I-30]', 'EC50', '8.82 µM'),
  ('CC(=O)N1CCC[C@]12CC=CCCCC1(CCCC=CCCCCCC[C@@](C)(C(=O)N[C@@H](Cc3ccccc3)C(=O)N[C@@H](Cc3ccc4ccccc4c3)C(N)=O)NC(=O)[C@H](C(C)C)NC(=O)[C@H](Cc3ccccc3)NC(=O)[C@H](C)NC(=O)[C@H](C)NC(=O)[C@H](CCC(=O)O)NC(=O)[C@H](CC(=O)O)NC1=O)NC(=O)[C@H](C)NC(=O)[C@H](CC(=O)O)NC2=O (stereo partly shown)', 'EC50', '5.45 µM'),
  ('CC(=O)N[C@@H](Cc1ccccc1)C(=O)N[C@@H](CC(=O)O)C(=O)N[C@@H](C)C(=O)N[C@]1(C)CCCCCCC=CCOC(=O)N2CC[C@@](C(=O)N[C@@H](Cc3ccccc3)C(=O)N[C@@H](Cc3c[nH]c4ccccc34)C(=O)N[C@@H](CCC(N)=O)C(N)=O)(C2)NC(=O)[C@H](C(C)C)NC(=O)[C@H](CCc2ccc(O)cc2)NC(=O)[C@H](C)NC(=O)[C@H](C)NC(=O)[C@H](CC(=O)O)NC(=O)[C@H](CC(=O)O)NC1=O', 'EC50', '4.94 µM');
